Source: ChEMBL document CHEMBL4818987

Below, each of the compounds is paired with its reported pIC50 value.
- Tested on: B16
- method-description: Antiproliferative activity against […] cells incubated for 48 to 72 hrs by MTT assay
- Format: functional, cell-based
- condition-details: Mus musculus
# pIC50: negative log10 of molar concentration; output just the value

Here's what some known entries look like.
Problem: Returns the measured pIC50 for the input compound. Input: COc1cc(C(=O)/C=C/c2ccc(C(F)(F)F)cc2)ccc1OCc1cn([C@H]2c3cc4c(cc3[C@@H](c3cc(OC)c(OC)c(OC)c3)[C@H]3C(=O)OC[C@@H]32)OCO4)nn1
Solution: 6.89

Problem: Quick one: pIC50 of COc1cc(OC)c(OC)cc1/C=C/C(=O)c1ccc(OCc2cn([C@H]3c4cc5c(cc4[C@@H](c4cc(OC)c(OC)c(OC)c4)[C@H]4C(=O)OC[C@@H]43)OCO5)nn2)c(OC)c1 ?
Solution: 6.89

Problem: Would you kindly share the measured pIC50 for COc1cc([C@@H]2c3cc4c(cc3[C@H](n3cc(COc5ccc(C)c([N+](=O)[O-])c5)nn3)[C@H]3COC(=O)[C@H]23)OCO4)cc(OC)c1OC ?
Solution: 6.89

Problem: Need pIC50 of CCc1ccc(OC(C)(C)c2cn([C@H]3c4cc5c(cc4[C@@H](c4cc(OC)c(OC)c(OC)c4)[C@H]4C(=O)OC[C@@H]43)OCO5)nn2)cc1 , thanks.
Solution: 6.82

Problem: Can you share its pIC50? I mean this compound: COc1ccccc1/C=C/C(=O)c1ccc(OCc2cn([C@H]3c4cc5c(cc4[C@@H](c4cc(OC)c(OC)c(OC)c4)[C@H]4C(=O)OC[C@@H]43)OCO5)nn2)c(OC)c1
Solution: 6.89

More entries:
Problem: Query (compound): COc1cc(C(=O)/C=C/c2cc(OC)c(OC)c(OC)c2)ccc1OCc1cn([C@H]2c3cc4c(cc3[C@@H](c3cc(OC)c(OC)c(OC)c3)[C@H]3C(=O)OC[C@@H]32)OCO4)nn1 ; field requested: pIC50
Solution: 6.89

Problem: For the compound shown here, COc1cc([C@@H]2c3cc4c(cc3[C@H](n3cc(COc5ccc(-c6ccccc6)cc5)nn3)[C@H]3COC(=O)[C@H]23)OCO4)cc(OC)c1OC , give the reported pIC50.
Solution: 6.82

====

- Test system: HeLa
- method-description: Antiproliferative activity against human HeLa cells by MTT assay
- Assay type: functional, cell-based
Item-by-item account of pIC50
# pIC50: negative log10 of molar concentration; output just the value

Would you please look over these solved cases?
Problem: Param readout = pIC50; param system = HeLa; param query = COc1cc([C@@H]2c3cc4c(cc3[C@@H](O[C@@H]3O[C@@H]5CO[C@@H](C)O[C@H]5[C@H](O)[C@H]3O)[C@H]3COC(=O)[C@H]23)OCO4)cc(OC)c1O [ETOPOSIDE] ; response: value
Solution: 6.51

Problem: Write down the reported pIC50 of COc1ccc2c(c1)cc(/C=N/[C@@H]1c3cc4c(cc3[C@@H](c3cc(OC)c(OC)c(OC)c3)[C@H]3C(=O)OC[C@@H]31)OCO4)n2Cc1ccccc1F , test system: HeLa.
Solution: 6.19

Problem: # returns recorded pIC50 (system: HeLa) for COc1ccc2[nH]c(CN[C@@H]3c4cc5c(cc4[C@@H](c4cc(OC)c(OC)c(OC)c4)[C@H]4C(=O)OC[C@@H]43)OCO5)cc2c1
Solution: 7.00

Problem: What value of pIC50 on HeLa does COc1cc([C@@H]2c3cc4c(cc3[C@@H](NCc3cc5ccccc5[nH]3)[C@H]3COC(=O)[C@H]23)OCO4)cc(OC)c1OC have?
Solution: 7.00

# next compound below
Problem: Item: COc1cc([C@@H]2c3cc4c(cc3[C@@H](NCc3cc5cc(F)ccc5[nH]3)[C@H]3COC(=O)[C@H]23)OCO4)cc(OC)c1OC Test system: HeLa Read-out: pIC50 Value: ?
Solution: 7.00
